Target: Voltage-dependent N-type calcium channel subunit alpha-1B (Homo sapiens)
Experiment: inhibitors of Mint1-CaV2.2 protein interaction, biochemical, HTRF (AID 2073)
Details: at 20 µM
The campaign covered roughly 290,000 compounds. About 570 (0.2%) were called active. Roughly 1% stayed inconclusive and do not appear here. No stated cut-off is given here; in the data, active means inhibition mostly above about 51% (no sharp cut-off); inconclusive means no clear call, values can overlap the other calls; inactive means mostly below about 53%. Shown is part of a subset that was picked to be rich in actives.
I would appreciate it if you answered using one of these outcomes: 1.0 = active, 0.0 = inactive

compound | assignedClass
Cc1c(C=C2C(=O)N(C)C(=S)N(C)C2=O)c2ccccc2n1CC(=O)NCC1CCCO1 (configuration not stated) | 0.0
CN(C)P1(N(C)C)=NC(C(F)(F)F)=NC(C(F)(F)F)=N1 | 0.0
CNC(=S)N(C)CCc1cc2c(c(OC)c1/C=C1/C(=O)NC(=O)N(C)C1=O)OCO2 | 0.0
CC(C)n1c(=O)c(C=Nc2ccc(F)cc2)c(O)n(Cc2ccco2)c1=O | 0.0

Outcome logged for O=C1NC(=O)N(Cc2ccc(F)cc2)C(=O)/C1=C/c1cccs1 in this assay: 0.0

What did the test return for CCC(=O)Nc1ccccc1 ? 0.0

Dear all, I need the recorded test outcome for O=C1/C(=C\c2ccc([N+](=O)[O-])cc2)N2CCC1CC2 , thank you. 0.0

So what was the verdict on CC(=O)N1CCN(Cc2ccc(Cl)nc2)CC1 in this test? 0.0

Can you look up the reported call for Cc1oc(-c2ccccc2)nc1CN1C(=O)CN=C(c2ccccc2)c2ccccc21 for me? 0.0

* * *

Target: Voltage-dependent N-type calcium channel subunit alpha-1B (Homo sapiens) (UniProt Q00975)
Sequence (Q00975 whole entry, looked up): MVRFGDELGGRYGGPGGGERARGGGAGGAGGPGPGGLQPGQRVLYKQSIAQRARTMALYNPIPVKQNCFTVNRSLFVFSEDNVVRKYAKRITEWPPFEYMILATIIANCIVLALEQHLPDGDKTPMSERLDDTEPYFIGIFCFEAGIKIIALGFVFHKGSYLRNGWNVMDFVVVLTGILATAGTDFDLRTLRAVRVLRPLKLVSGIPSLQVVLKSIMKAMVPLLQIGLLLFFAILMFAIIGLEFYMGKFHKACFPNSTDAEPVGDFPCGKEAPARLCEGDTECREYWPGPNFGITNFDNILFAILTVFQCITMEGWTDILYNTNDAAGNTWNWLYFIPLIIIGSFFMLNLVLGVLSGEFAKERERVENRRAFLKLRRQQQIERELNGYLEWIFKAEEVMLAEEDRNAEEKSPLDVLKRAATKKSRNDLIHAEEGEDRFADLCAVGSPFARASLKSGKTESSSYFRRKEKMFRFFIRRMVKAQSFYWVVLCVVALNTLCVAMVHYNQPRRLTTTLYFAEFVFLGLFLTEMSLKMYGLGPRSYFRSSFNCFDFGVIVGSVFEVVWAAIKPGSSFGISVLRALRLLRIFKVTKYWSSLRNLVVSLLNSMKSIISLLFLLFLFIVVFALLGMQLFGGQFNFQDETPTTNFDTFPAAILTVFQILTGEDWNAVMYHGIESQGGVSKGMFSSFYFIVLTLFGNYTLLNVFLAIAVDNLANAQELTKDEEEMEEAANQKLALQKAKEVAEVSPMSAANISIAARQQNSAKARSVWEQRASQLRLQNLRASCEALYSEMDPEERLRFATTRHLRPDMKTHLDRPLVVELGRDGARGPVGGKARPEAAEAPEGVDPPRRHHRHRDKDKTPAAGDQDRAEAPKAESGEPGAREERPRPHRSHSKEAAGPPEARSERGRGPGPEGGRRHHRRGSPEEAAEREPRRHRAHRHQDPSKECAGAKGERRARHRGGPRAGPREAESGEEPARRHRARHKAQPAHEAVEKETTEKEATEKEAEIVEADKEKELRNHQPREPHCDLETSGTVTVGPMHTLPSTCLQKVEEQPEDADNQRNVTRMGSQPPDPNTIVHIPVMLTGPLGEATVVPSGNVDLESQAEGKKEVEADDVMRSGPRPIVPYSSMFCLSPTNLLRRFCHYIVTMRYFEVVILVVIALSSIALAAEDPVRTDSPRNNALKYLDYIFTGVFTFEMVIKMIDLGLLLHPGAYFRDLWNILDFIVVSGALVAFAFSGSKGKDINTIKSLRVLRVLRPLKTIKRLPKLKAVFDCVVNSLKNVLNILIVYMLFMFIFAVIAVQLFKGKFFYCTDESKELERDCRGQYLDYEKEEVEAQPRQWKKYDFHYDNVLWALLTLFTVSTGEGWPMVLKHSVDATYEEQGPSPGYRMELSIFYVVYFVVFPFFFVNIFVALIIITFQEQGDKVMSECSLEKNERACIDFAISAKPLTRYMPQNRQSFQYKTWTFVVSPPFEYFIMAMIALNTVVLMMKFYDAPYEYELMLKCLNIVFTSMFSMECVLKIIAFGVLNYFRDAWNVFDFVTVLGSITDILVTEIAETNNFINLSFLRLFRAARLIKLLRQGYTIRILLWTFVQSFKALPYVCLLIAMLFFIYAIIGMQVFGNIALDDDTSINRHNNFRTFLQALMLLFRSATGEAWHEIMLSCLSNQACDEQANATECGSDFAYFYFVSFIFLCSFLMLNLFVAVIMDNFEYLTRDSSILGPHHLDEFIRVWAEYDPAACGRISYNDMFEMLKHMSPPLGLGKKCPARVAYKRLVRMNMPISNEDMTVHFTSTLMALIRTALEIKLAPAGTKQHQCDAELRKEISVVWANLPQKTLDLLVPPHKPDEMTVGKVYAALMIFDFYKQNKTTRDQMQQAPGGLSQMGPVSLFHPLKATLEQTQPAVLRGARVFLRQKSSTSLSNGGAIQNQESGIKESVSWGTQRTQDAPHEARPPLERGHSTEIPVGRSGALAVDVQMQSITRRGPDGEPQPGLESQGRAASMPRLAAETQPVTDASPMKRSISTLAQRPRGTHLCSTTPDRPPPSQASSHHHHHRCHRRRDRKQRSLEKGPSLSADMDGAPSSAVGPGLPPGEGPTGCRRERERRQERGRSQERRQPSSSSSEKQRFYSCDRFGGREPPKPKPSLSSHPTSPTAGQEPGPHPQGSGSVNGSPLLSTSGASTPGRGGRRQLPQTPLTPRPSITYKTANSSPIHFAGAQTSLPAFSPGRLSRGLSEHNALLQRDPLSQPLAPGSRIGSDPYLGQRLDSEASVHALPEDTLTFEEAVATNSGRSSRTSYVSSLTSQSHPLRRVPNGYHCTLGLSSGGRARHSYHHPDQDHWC
Test: inhibitors of Mint1-CaV2.2 protein interaction, biochemical, HTRF (AID 2073)
Conditions: at 20 µM
In all, about 290,000 compounds went through this assay and about 570 (0.2%) were called active. Inconclusive results (about 1%) are left out. No stated cut-off is given here; in the data, active means inhibition mostly above about 51% (no sharp cut-off); inconclusive means no clear call, values can overlap the other calls; inactive means mostly below about 53%. The full list was thinned out, with actives kept by preference.
Pick one and only one: 1 (active), -1 (inactive)

compound | assignedClass
O=C(O)CCn1cc(C=C2C(=O)NC(=S)NC2=O)c(-c2cccc(Br)c2)n1 | 1
CCCCCCn1c(O)c(C=NCCN2CCOCC2)c(=O)[nH]c1=O | -1
O=C(O)CCn1cc(C=C2C(=O)NC(=O)NC2=O)c(-c2cc3ccccc3oc2=O)n1 | -1

Kindly provide the recorded test outcome for the following compound: O=C(O)CCn1cc(C=C2C(=O)NC(=O)NC2=O)c(-c2ccc(Br)cc2)n1 -1

* * *

Below: a set of entries, each annotated with reported inhibition.
Target: Voltage-dependent N-type calcium channel subunit alpha-1B (Homo sapiens)
Assay: inhibitors of Mint1-CaV2.2 protein interaction, biochemical, HTRF (AID 2073)
Conditions: at 20 µM, active compounds read high
The whole screen tested about 290,000 compounds, of which about 570 (0.2%) were called active. Another 1% or so got no clear call; they are omitted. Shown is part of a subset that was picked to be rich in actives.
// return numeric value only (unit: %, not printed)

# example entries with known answers
compound | inhibition / %
COc1cccc(-n2c(/C=C/c3ccc(O)c(O)c3)nc3ccccc3c2=O)c1 | 62.6
CC(C)n1c(=O)c(C=Nc2ccc(Br)cc2)c(O)n(Cc2ccco2)c1=O | 59.1
CCN(CC)C(=O)c1ccc(NC(=O)CCCSc2ccccc2)cc1 | -3.4
CCc1ccc(N2C(=O)NC(=O)/C(=C/c3cccn3CCOc3ccc(C)cc3)C2=O)cc1 | 17.5
CN1CCN(C(=O)Cc2ccccc2)CC1 | 5.6
Cc1ccc(NC(=O)c2cn(CCC#N)nc2-c2ccc3c(c2)OCCO3)c([N+](=O)[O-])c1 | -4.2

Give its inhibition value. Item: COc1c(C=C2C(=O)NC(=O)NC2=O)c(CCN(C)C(=O)c2ccccc2)cc2c1OCO2 15.8

So what does the record say about inhibition for CNC(=S)N(C)CCc1cc2c(c(OC)c1C=C1C(=O)NC(=O)NC1=O)OCO2 ? 50.6

What value of inhibition has been reported for the following compound? O=C1NC(=S)N(Cc2ccco2)C(=O)/C1=C\c1cccs1 76.9

Using the record for O=c1c2ccccc2nc(/C=C/c2ccc(O)c(O)c2)n1-c1ccccc1 , report its inhibition. 33.3

Quick check: inhibition of Cc1cc(C=C2C(=O)NC(=S)NC2=O)c(C)n1-c1ccc2c(c1)OCO2 ? 53.2

Report inhibition for Cc1cc(/C=C2\C(=O)NC(=O)N(C)C2=O)c(C)n1-c1ccc2c(c1)OCO2 please. 0.4

So what does the record say about inhibition for CN1C(=O)C(=Cc2ccc(OCCN(C)c3ccccn3)cc2)C(=O)N(C)C1=O ? 3.3
